- TGT: Muscarinic acetylcholine receptor M1 (Homo sapiens, UniProt P11229)
- Sequence (P11229 whole entry): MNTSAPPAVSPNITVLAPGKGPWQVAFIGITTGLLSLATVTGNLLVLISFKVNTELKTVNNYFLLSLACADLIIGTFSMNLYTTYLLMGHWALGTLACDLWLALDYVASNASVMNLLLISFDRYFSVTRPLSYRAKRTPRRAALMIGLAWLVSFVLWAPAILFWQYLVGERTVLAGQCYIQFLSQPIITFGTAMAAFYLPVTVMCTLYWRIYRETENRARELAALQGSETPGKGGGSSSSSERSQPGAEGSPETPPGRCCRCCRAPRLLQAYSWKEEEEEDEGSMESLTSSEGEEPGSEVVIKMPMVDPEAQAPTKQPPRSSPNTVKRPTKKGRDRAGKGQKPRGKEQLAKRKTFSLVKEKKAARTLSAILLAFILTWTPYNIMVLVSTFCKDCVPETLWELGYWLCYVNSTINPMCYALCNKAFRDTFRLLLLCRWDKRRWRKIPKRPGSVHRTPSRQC
- METHOD SUMMARY: Antagonist activity at human muscarinic M1 receptor expressed in CHO cells in the presence of acetylcholine by calcium mobilisation assay

SMILES CODE: C[C@H]1CN(S(=O)(=O)c2ccc3c(c2)CCO3)C[C@@H]1C(=O)Nc1ccc2scnc2c1
IC50: > 10 µM

* * *

- Test system: P-glycoprotein
- METHOD SUMMARY: Efflux ratio of permeability in MDCK-MDR1 cells expressing P-glycoprotein
- Type: ADME, cell-based, Canis lupus familiaris
- RECORDED CONDITIONS: dog
ENDPOINT NAME: efflux ratio

SMILES CODE: C[C@H]1CN(S(=O)(=O)c2ccc3c(c2)CCO3)C[C@@H]1C(=O)Nc1ccc2scnc2c1
TGT: P-glycoprotein
NUMBER: 32.3
